target_or_system: Recombinant human cathepsin A (Homo sapiens)
Construct: Recombinant human cathepsin A (residues 29-480, with a C-terminal 10-His tag); 10-His (C)
Sequence (P10619 29-326 limits assumed): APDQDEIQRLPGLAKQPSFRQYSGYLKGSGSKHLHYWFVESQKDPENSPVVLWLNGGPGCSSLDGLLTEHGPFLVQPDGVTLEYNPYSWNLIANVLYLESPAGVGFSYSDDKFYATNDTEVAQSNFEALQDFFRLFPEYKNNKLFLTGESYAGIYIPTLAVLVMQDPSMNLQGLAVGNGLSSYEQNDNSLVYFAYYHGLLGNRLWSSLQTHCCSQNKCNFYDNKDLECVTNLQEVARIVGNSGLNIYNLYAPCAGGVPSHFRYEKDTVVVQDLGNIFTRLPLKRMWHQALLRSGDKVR
Sequence (P10619 327-480 limits assumed): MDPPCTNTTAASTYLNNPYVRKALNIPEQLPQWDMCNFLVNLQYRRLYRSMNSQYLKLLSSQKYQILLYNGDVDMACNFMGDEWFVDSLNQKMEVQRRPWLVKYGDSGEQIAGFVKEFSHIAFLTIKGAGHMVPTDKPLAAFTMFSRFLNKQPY
procedure_text: Cathepsin A inhibitory activity
assay_context: activated recombinant human cathepsin A 833 ng/ml, Bodipy FL-labeled bradykinin substrate 2 μM, pH 5.5, room temperature
The compounds listed here are annotated with their pIC50.
Bear in mind: pIC50 is minus log10 of a mol/L concentration; give just that figure.

Take a look at these entries with their results.
1. O=C(O)C[C@H](NC(=O)c1csc(-c2cccc(Cl)c2)n1)c1ccccc1Cl
6.15
2. Cc1ccccc1-c1nc(C(=O)N[C@@H](CC(=O)O)c2ccccc2C(F)(F)F)cs1
6.17
3. COc1cccc([C@H](CC(=O)O)NC(=O)c2csc(-c3cccc(Cl)c3Cl)n2)c1OC
6.81

Enquiry: # return pIC50 of `Cc1ccccc1-c1nc(C(=O)N[C@@H](CC(=O)O)c2cccc(Cl)c2Cl)cs1` (system: Recombinant human cathepsin A (Homo sapiens))
Return: 7.07

Enquiry: # return pIC50 of `Cc1ccccc1-c1nc(C(=O)N[C@@H](CC(=O)O)c2ccc(F)cc2)cs1` (system: Recombinant human cathepsin A (Homo sapiens))
Return: 6.52

Enquiry: # return pIC50 of `O=C(O)C[C@H](NC(=O)c1csc(-c2cccc(Cl)c2Cl)n1)c1cccc(Cl)c1Cl` (system: Recombinant human cathepsin A (Homo sapiens))
Return: 6.80

Enquiry: # return pIC50 of `COc1ccc([C@H](CC(=O)O)NC(=O)c2csc(-c3ccc(Cl)cc3)n2)cc1` (system: Recombinant human cathepsin A (Homo sapiens))
Return: 5.47

----------
target_or_system: Recombinant human cathepsin A (Homo sapiens)
Construct: Recombinant human cathepsin A (residues 29-480, with a C-terminal 10-His tag); 10-His (C)
Sequence (P10619 29-326 limits assumed): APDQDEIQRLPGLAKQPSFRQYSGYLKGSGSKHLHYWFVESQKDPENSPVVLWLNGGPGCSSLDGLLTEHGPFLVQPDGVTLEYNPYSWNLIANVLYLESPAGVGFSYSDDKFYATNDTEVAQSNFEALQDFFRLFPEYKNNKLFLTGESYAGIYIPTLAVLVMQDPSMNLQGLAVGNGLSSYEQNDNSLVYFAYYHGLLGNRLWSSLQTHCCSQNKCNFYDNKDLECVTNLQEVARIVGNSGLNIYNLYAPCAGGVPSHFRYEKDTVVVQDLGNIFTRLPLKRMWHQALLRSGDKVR
Sequence (P10619 327-480 limits assumed): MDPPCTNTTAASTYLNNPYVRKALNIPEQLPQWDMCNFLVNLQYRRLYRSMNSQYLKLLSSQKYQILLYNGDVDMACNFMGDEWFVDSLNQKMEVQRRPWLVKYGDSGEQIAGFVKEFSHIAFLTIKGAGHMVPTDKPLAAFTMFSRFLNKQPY
procedure_text: Cathepsin A inhibitory activity
assay_context: activated recombinant human cathepsin A 833 ng/ml, Bodipy FL-labeled bradykinin substrate 2 μM, pH 5.5, room temperature
Excerpt: a) Cathepsin A Inhibitory Activity Recombinant human cathepsin A (residues 29-480, with a C-terminal 10-His tag; R&D Systems, #1049-SE) was proteolytically activated with recombinant human cathepsin L (R&D Systems, #952-CY). […] Uncleaved substrate and product were then separated by a microfluidic capillary electrophoresis on a LabChip® 3000 Drug Discovery System (12-Sipper-Chip; Caliper Life Sciences) and quantified by determination of the respective peak areas. […]
The compounds listed here are annotated with their log10 of IC50.
In our notation, the value equals log10 of IC50 in nM.

Take a look at these entries with their results.
1) COc1cccc([C@H](CC(=O)O)NC(=O)c2csc(-c3ccccc3C)n2)c1OC
2.38
2) O=C(O)C[C@H](NC(=O)c1csc(-c2ccccc2F)n1)c1cccc(Cl)c1Cl
2.32
3) O=C(O)CC(NC(=O)c1csc(-c2ccccc2)n1)C1CCCCC1 (centres unmarked)
3.05
4) Cc1ccccc1-c1nc(C(=O)N[C@@H](CC(=O)O)c2ccc(Cl)cc2Cl)cs1
2.95
5) COc1ccc([C@H](CC(=O)O)NC(=O)c2csc(-c3ccccc3F)n2)cc1
2.99
6) O=C(O)C[C@H](NC(=O)c1csc(-c2cccc(Cl)c2)n1)c1cccc(F)c1
3.57

Could you now consider this next compound?
Enquiry: Supply log10 of IC50 value. Item: `O=C(O)C[C@H](NC(=O)c1nc(-c2ccccc2)cs1)c1cccc(Cl)c1Cl`
Return: 1.58

----------
target_or_system: Recombinant human cathepsin A (Homo sapiens, UniProt P10619)
Construct: Recombinant human cathepsin A (residues 29-480, with a C-terminal 10-His tag); 10-His (C); purchased R&D Systems 1049-SE
procedure_text: Cathepsin A inhibitory activity
Assay type: biochemical
assay_context: activated recombinant human cathepsin A 833 ng/ml, Bodipy FL-labeled bradykinin substrate 2 μM, pH 5.5, room temperature
measured_metric: IC50 (µM)
Entry rule: numbers only, all in µM.

Take a look at these entries with their results.
1) O=C(O)C[C@H](NC(=O)c1csc(-c2cccc(Cl)c2)n1)c1ccc(Cl)cc1Cl
1.91
2) COc1ccc([C@H](CC(=O)O)NC(=O)c2csc(-c3ccccc3)n2)cc1
0.976
3) O=C(O)C[C@H](NC(=O)c1csc(-c2ccccc2Cl)n1)c1cccc(Cl)c1
0.238
4) O=C(NCC(C(=O)O)c1ccccc1)c1csc(-c2ccccc2Cl)n1 (centres unmarked)
6.04
5) O=C(O)C[C@H](NC(=O)c1csc(-c2ccc(Cl)cc2)n1)c1cccc(Cl)c1
3.54

Enquiry: Supply IC50 value. Item: `O=C(O)C[C@H](NC(=O)c1csc(-c2ccccc2)n1)c1ccccc1F`
Return: 1.48

Enquiry: Supply IC50 value. Item: `O=C(O)C[C@H](NC(=O)c1csc(-c2ccccc2)n1)c1ccccc1Cl`
Return: 0.217

----------
target_or_system: Recombinant human cathepsin A (Homo sapiens)
Construct: Recombinant human cathepsin A (residues 29-480, with a C-terminal 10-His tag); 10-His (C)
Sequence (P10619 29-326 limits assumed): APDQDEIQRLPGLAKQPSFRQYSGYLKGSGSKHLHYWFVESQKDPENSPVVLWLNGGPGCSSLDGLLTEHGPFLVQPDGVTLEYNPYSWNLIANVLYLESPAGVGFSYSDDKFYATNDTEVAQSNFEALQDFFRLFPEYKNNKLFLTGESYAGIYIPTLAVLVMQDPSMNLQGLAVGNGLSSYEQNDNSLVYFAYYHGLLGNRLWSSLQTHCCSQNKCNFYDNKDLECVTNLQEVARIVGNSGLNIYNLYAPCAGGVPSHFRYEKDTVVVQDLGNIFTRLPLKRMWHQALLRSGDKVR
Sequence (P10619 327-480 limits assumed): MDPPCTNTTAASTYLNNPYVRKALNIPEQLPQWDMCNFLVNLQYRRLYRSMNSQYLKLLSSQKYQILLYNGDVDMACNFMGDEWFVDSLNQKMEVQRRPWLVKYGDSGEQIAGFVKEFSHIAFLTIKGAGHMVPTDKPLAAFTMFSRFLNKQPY
procedure_text: Cathepsin A inhibitory activity
assay_context: activated recombinant human cathepsin A 833 ng/ml, Bodipy FL-labeled bradykinin substrate 2 μM, pH 5.5, room temperature
measured_metric: pIC50
Bear in mind: pIC50 is minus log10 of a mol/L concentration; give just that figure.

Take a look at these entries with their results.
1) O=C(O)C[C@H](NC(=O)c1csc(-c2ccc(C(F)(F)F)cc2)n1)c1ccccc1F [Example 37]
4.83
2) O=C(O)C[C@H](NC(=O)c1csc(-c2ccccc2F)n1)c1ccc(Cl)cc1Cl [Example 24]
5.97

Enquiry: # return pIC50 of Cc1ccccc1[C@H](CC(=O)O)NC(=O)c1csc(-c2ccccc2Cl)n1 [Example 82] (system: Recombinant human cathepsin A (Homo sapiens))
Return: 7.52

Enquiry: # return pIC50 of Cc1ccccc1-c1nc(C(=O)N[C@@H](CC(=O)O)c2ccccc2C)cs1 [Example 111] (system: Recombinant human cathepsin A (Homo sapiens))
Return: 6.97
